Entry source: the RNAGym collection of RNA variant scans (doi:10.1093/nar/gkz1192)

B1: CPEB3 Ribozyme (parent)
chain: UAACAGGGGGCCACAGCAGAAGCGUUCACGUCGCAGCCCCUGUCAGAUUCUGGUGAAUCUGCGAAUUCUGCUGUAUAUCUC

# Variants of: B1
# experimentalDetails: self-cleavage, relative activity (ratio to wild type); higher = more cleavage; in vitro, sequencing
parameterMeasured: self-cleavage
Please give only the number in your answer, with no unit.

Reported self-cleavage for A2G C39A : what is it?
0.09

Thanks! And G10A U51A ?
0.33

Thanks! And G30U U78C ?
0.09

Thanks! And U1C A35G ?
1.24

Thanks! And U72G C79U ?
1.21

Thanks! And U76A U80A ?
1.17

Thanks! And U60C C68A ?
0.32

Thanks! And A65U U80C ?
0.38

Thanks! And A57U A75G ?
0.69

Thanks! And A28G A45G ?
0.4

Thanks! And A5U U80G ?
1.14

Thanks! And G9A A28U ?
0.22

Thanks! And A35G A77U ?
1.28

Thanks! And G6A U72A ?
0.2

Thanks! And A5C U67G ?
0.27

Thanks! And G46A U69C ?
0.07

Thanks! And A13G C32A ?
0.16

Thanks! And G19U U80A ?
0.19

Thanks! And G30A U78C ?
0.24

Thanks! And C29U A57G ?
0.41

Thanks! And C12A A13G ?
0.89

Thanks! And A5G U31G ?
0.47
